From: patent US20150353495A1

Recorded IC50 values for a group of compounds are listed next.
- target_or_test_system: JAK2 (Homo sapiens, UniProt O60674)
- Construct: 5 μl of catalytic domain recombinant Kinase enzyme+Tyr peptide substrate (Invitrogen, CA)
- Sequence (O60674 849-1124 limits assumed): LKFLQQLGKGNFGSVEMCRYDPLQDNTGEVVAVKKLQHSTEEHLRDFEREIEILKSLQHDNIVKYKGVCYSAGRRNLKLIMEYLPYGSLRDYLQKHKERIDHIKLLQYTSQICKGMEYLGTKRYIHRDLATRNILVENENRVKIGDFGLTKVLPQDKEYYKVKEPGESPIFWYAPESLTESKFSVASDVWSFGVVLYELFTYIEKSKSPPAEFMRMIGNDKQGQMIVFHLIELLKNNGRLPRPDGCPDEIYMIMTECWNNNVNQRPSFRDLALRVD
- test_name: Z'-LYTE kinase assay JAK2

Use the examples below as a reference point.
N#Cc1cccc(Nc2cc(NCc3ccccc3)c(C(N)=O)cn2)c1 [Example 391] | > 1 µM
CN(C)C(=O)c1ccc(Nc2cc(NCc3cccc(-c4ccccn4)c3)c(C(N)=O)cn2)cc1 [Example 421] | 0.1 to 1 µM

Q: Quick one: give measured IC50 for NC(=O)c1cnc(Nc2ccc(OC(F)F)cc2)cc1NCc1cccc2[nH]ccc12 [Example 321]
Ans: 0.1 to 1 µM

Q: Quick one: give measured IC50 for Cc1cc(Nc2cc(NCc3cccc4[nH]ccc34)c(C(N)=O)cn2)ccc1C(=O)N1CCOCC1 [Example 462]
Ans: 0.001 to 0.01 µM

Q: Quick one: give measured IC50 for NC(=O)c1cnc(Nc2ccc(OC(F)F)cc2)cc1NCc1cncc(F)c1 [Example 309]
Ans: 0.1 to 1 µM

Q: Quick one: give measured IC50 for NC(=O)c1cnc(Nc2cccc(N3CCOCC3)c2)cc1NC1(c2ccccc2)CC1 [Example 128]
Ans: > 1 µM

Q: Quick one: give measured IC50 for NC(=O)c1cnc(Nc2ccc(N3CCOCC3)cc2)cc1NCc1cccc(F)c1 [Example 67]
Ans: 0.01 to 0.1 µM

Q: Quick one: give measured IC50 for NC(=O)c1cnc(Nc2ccc(N3CCCCC3)cc2)cc1N[C@H](CO)c1ccccc1 [Example 75]
Ans: > 1 µM

Q: Quick one: give measured IC50 for CN(C)C(=O)c1ccc(Nc2cc(NCc3cccc(S(C)(=O)=O)c3)c(C(N)=O)cn2)cc1 [Example 302]
Ans: 0.1 to 1 µM

Q: Quick one: give measured IC50 for COc1ccc(Nc2cc(NCc3cc(F)ccc3F)c(C(N)=O)cn2)cc1 [Example 83]
Ans: 0.1 to 1 µM

Q: Quick one: give measured IC50 for COc1ccc(Nc2cc(N[C@@H]3CCCN(C(C)=O)C3)c(C(N)=O)cn2)cc1 [Example 37]
Ans: > 1 µM

Q: Quick one: give measured IC50 for NC(=O)c1cnc(Nc2ccc(C3CCN(CC(F)F)CC3)cc2)cc1NCc1cccc(F)c1F [Example 216]
Ans: > 1 µM

Q: Quick one: give measured IC50 for CN(C)C(=O)Cc1ccc(Nc2cc(NCc3ccccc3)c(C(N)=O)cn2)cc1 [Example 328]
Ans: 0.1 to 1 µM

Q: Quick one: give measured IC50 for CC(=O)Nc1cccc(Nc2nc(NCc3ccccc3)c(C(N)=O)cc2F)c1 [Example 19]
Ans: > 1 µM

Q: Quick one: give measured IC50 for N#Cc1ccc(Nc2cc(NCc3cncc(F)c3)c(C(N)=O)cn2)cc1 [Example 308]
Ans: > 1 µM

Q: Quick one: give measured IC50 for CC(=O)N1CC(c2ccc(Nc3cc(NCc4cccc5ccsc45)c(C(N)=O)cn3)cc2)C1 [Example 333]
Ans: 0.01 to 0.1 µM

Q: Quick one: give measured IC50 for CCC(=O)N1CCC(c2ccc(Nc3cc(NCc4cccs4)c(C(N)=O)cn3)cc2)CC1 [Example 197]
Ans: 0.1 to 1 µM

Q: Quick one: give measured IC50 for NC(=O)c1cnc(Nc2ccc(N3CCN(c4ccccn4)CC3)cc2)cc1NCc1ccccc1 [Example 385]
Ans: > 1 µM

Q: Quick one: give measured IC50 for COc1ccc(Nc2cc(NCC3CCCC3)c(C(N)=O)cn2)cc1 [Example 32]
Ans: > 1 µM

---

Recorded IC50 values for a group of molecules are listed next.
- target_or_test_system: JAK3 (Homo sapiens)
- Construct: 5 μl of catalytic domain recombinant Kinase enzyme+Tyr peptide substrate (Invitrogen, CA)
- Sequence (P52333 822-1111 limits assumed): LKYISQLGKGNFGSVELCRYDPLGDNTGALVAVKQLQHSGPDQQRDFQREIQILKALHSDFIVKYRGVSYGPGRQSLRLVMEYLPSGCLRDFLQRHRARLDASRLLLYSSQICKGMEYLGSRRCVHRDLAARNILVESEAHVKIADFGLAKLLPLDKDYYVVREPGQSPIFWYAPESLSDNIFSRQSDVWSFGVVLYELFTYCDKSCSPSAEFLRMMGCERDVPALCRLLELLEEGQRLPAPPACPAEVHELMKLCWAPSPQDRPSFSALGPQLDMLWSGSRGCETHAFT
- test_name: Z'-LYTE kinase assay JAK3

Use the examples below as a reference point.
NC(=O)c1cnc(Nc2ccc(CN3CCOCC3)cc2)cc1NCc1ccccc1 [Example 431] | 1 to 10 nM
CCC(=O)N1CCC(Nc2cc(Nc3ccc(C4CCOCC4)cc3)ncc2C(N)=O)CC1 [Example 164] | > 1000 nM
CN(C(=O)C1CC1)c1ccc(Nc2cc(NCc3cccc4ccsc34)c(C(N)=O)cn2)cc1 [Example 467] | 10 to 100 nM
CN(C)C(=O)c1ccc(Nc2cc(NCc3cncc(F)c3)c(C(N)=O)cn2)cc1 [Example 312] | 1 to 10 nM
NC(=O)c1cnc(Nc2cccc(C(=O)N3CCCCC3)c2)cc1NCc1ccccc1 [Example 249] | 10 to 100 nM

Q: Quick one: give measured IC50 for CC(=O)Nc1cccc(Nc2cc(NC3(c4ccccc4)CC3)c(C(N)=O)cn2)c1 [Example 135]
Ans: 100 to 1000 nM

Q: Quick one: give measured IC50 for CCC(=O)N1CCN(c2ccc(Nc3cc(NCc4cccc(F)c4F)c(C(N)=O)cn3)cc2)CC1 [Example 435]
Ans: 1 to 10 nM

Q: Quick one: give measured IC50 for CN(C)C(=O)c1ccc(Nc2cc(NCc3ccccc3)c(C(N)=O)cn2)cc1Cl [Example 437]
Ans: 1 to 10 nM

---

Recorded pIC50 values for a group of molecules are listed next.
- target_or_test_system: JAK2 (Homo sapiens, UniProt O60674)
- Construct: 5 μl of catalytic domain recombinant Kinase enzyme+Tyr peptide substrate (Invitrogen, CA)
- test_name: Z'-LYTE kinase assay JAK2
pIC50: −log10 of the molar value.

Use the examples below as a reference point.
CC(=O)N1CCN(c2cccc(Nc3cc(NC4(c5ccccc5)CC4)c(C(N)=O)cn3)c2)CC1 | 6.00 to 7.00
CS(=O)(=O)Cc1ccc(Nc2cc(NCc3cccc4ccsc34)c(C(N)=O)cn2)cc1 | 7.00 to 8.00
CN(C)C(=O)C1CCN(c2ccc(Nc3cc(NCc4ccccc4)c(C(N)=O)cn3)cc2)CC1 | 7.00 to 8.00

As a next step, examine the molecule that follows.
Q: Quick one: give measured pIC50 for "COc1ccc(Nc2cc(NC[C@H]3CCCN(S(=O)(=O)C4CC4)C3)c(C(N)=O)cn2)cc1"
Ans: < 6.00

---

Recorded IC50 values for a group of molecules are listed next.
- target_or_test_system: JAK1 (Homo sapiens)
- Construct: 5 μl of catalytic domain recombinant Kinase enzyme+Tyr peptide substrate (Invitrogen, CA)
- test_name: Z'-LYTE kinase assay JAK1

Use the examples below as a reference point.
CNC(=O)[C@H]1CCCN(c2ccc(Nc3cc(NCc4ccccc4)c(C(N)=O)cn3)cc2)C1 [Example 4] | 100 to 1000 nM
COc1ccc(Nc2cc(NCc3cccc(F)c3F)c(C(N)=O)cn2)cc1 [Example 101] | > 1000 nM
CCC(=O)N1CCC(c2ccc(Nc3cc(NCc4cccc5ccsc45)c(C(N)=O)cn3)cc2)CC1 [Example 211] | > 1000 nM
CN(C)CC(C)(C)CNc1cc(Nc2ccc(C3CCOCC3)cc2)ncc1C(N)=O [Example 171] | > 1000 nM
CN(C)C(=O)c1cc(Nc2cc(NCc3ccccc3)c(C(N)=O)cn2)ccc1N(C)C [Example 440] | 100 to 1000 nM
COc1cc(Nc2cc(NCc3ccccc3)c(C(N)=O)cn2)ccc1C(=O)N(C)C [Example 436] | > 1000 nM

Q: Quick one: give measured IC50 for Cc1ccc(Nc2cc(NCc3ccccc3)c(C(N)=O)cn2)cc1 [Example 10]
Ans: > 1000 nM

Q: Quick one: give measured IC50 for CC(=O)Nc1ccc(Nc2cc(NCc3cncc(F)c3)c(C(N)=O)cn2)cc1 [Example 484]
Ans: 100 to 1000 nM

Q: Quick one: give measured IC50 for NC(=O)c1cnc(Nc2ccc(OC(F)F)cc2)cc1NCc1cccc2[nH]ccc12 [Example 321]
Ans: 100 to 1000 nM

Q: Quick one: give measured IC50 for CN1C(=O)COc2ccc(Nc3cc(NCc4ccccc4)c(C(N)=O)cn3)cc21 [Example 85]
Ans: > 1000 nM

Q: Quick one: give measured IC50 for COc1ccc(Nc2cc(NC[C@H]3CCCN(C(=O)N(C)C)C3)c(C(N)=O)cn2)cc1 [Example 291]
Ans: > 1000 nM

Q: Quick one: give measured IC50 for CN1CCC(C(=O)Nc2cc(Nc3cc(NC4(c5ccccc5)CC4)c(C(N)=O)cn3)ccc2Cl)CC1 [Example 136]
Ans: > 1000 nM

Q: Quick one: give measured IC50 for NC(=O)c1cnc(Nc2cccc(C3CCOCC3)c2)cc1NCc1cc(F)ccc1F [Example 207]
Ans: 100 to 1000 nM

---

- target_or_test_system: JAK1 (Homo sapiens, UniProt P23458)
- Construct: 5 μl of catalytic domain recombinant Kinase enzyme+Tyr peptide substrate (Invitrogen, CA)
- Sequence (P23458 875-1153 limits assumed): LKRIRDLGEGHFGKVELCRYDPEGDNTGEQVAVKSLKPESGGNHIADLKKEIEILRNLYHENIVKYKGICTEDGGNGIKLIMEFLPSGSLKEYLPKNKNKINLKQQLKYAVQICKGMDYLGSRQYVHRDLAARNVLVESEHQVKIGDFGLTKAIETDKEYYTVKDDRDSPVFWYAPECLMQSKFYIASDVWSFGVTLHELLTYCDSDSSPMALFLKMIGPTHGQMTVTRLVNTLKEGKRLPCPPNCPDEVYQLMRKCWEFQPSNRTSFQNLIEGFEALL
- test_name: Z'-LYTE kinase assay JAK1
pIC50: −log10 of the molar value.
result_type: pIC50

Use the examples below as a reference point.
Cc1cc(Nc2cc(NCc3cccc4[nH]ccc34)c(C(N)=O)cn2)ccc1C(=O)N1CCCC1 | 8.00 to 9.00
CC(=O)N1CCN(c2ccc(Nc3cc(NCc4cccnc4)c(C(N)=O)cn3)cc2)CC1 | 6.00 to 7.00
N#CCN1CCC(c2ccc(Nc3cc(NCc4cc(F)ccc4F)c(C(N)=O)cn3)cc2)CC1 | 6.00 to 7.00
CC(=O)Nc1cccc(Nc2cc(NCc3cccs3)c(C(N)=O)cn2)c1 | 6.00 to 7.00

Q: Quick one: give measured pIC50 for "NC(=O)c1cnc(Nc2cccc(C3CCOCC3)c2)cc1NCc1ccccc1F"
Ans: 6.00 to 7.00

Q: Quick one: give measured pIC50 for "COc1ccc(Nc2cc(NCc3ccccc3)c(C(N)=O)cn2)cc1OC"
Ans: 6.00 to 7.00

Q: Quick one: give measured pIC50 for "NC(=O)c1cnc(Nc2ccc(C(F)(F)F)cc2)cc1NCc1cncc(F)c1"
Ans: < 6.00

Q: Quick one: give measured pIC50 for "COc1cc(Nc2cc(NCc3cccc(F)c3)c(C(N)=O)cn2)ccc1N1CCCC1=O"
Ans: 6.00 to 7.00

Q: Quick one: give measured pIC50 for "NC(=O)c1cnc(Nc2ccc(C3CCOCC3)cc2)cc1NCc1cccc(F)c1"
Ans: < 6.00

Q: Quick one: give measured pIC50 for "CC(=O)N(C)c1ccc(Nc2cc(NCc3cccc4ccsc34)c(C(N)=O)cn2)cc1"
Ans: 6.00 to 7.00

Q: Quick one: give measured pIC50 for "Cc1cc(Nc2cc(NCc3cccc4cc[nH]c34)c(C(N)=O)cn2)ccc1C(=O)N1CCCC1"
Ans: < 6.00

Q: Quick one: give measured pIC50 for "CN(C)C(=O)c1ccc(Nc2cc(NCc3ccccc3)c(C(N)=O)cn2)cc1"
Ans: 6.00 to 7.00

Q: Quick one: give measured pIC50 for "CCC(=O)N1CCC(c2ccc(Nc3cc(NCc4cccc(F)c4)c(C(N)=O)cn3)cc2)CC1"
Ans: < 6.00
